- MEASUREMENT_TARGET: human type PPARα (Homo sapiens)
- Construct: expressed in transfected cells; host or cells: CHO cells
- Sequence (Q07869 239-466 limits assumed): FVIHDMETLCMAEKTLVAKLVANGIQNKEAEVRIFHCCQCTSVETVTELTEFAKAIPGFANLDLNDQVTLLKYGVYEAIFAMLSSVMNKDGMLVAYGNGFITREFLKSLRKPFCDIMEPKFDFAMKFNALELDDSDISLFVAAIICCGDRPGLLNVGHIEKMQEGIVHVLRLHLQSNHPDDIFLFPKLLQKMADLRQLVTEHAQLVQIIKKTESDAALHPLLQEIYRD
- EXPERIMENT_NOTES: Test of transcriptional activation on peroxisome proliferator-activated receptor α
- Assay type: cell-based
- MEASUREMENT_PARAMETERS: CHO cells cotransfected with yeast DNA-binding domain/human PPARα ligand-binding domain fusion receptor plasmid, reporter plasmid and Renilla luciferase internal standard; luciferase measured after 24 hours; read-out: Transcription-activating function EC50
ASSAY_METRIC: pEC50
Note on units: pEC50 is unitless, being -log10 of a concentration expressed in mol/L.

The following molecules have reported results that may help.
{"MOLECULE": "COc1ccc(CCC(=O)O)cc1NC(=O)Cc1ccc(-c2ccccc2)cc1 [Example 44]", "pEC50": 6.89}
{"MOLECULE": "COc1ccc(CC(OC)C(=O)O)cc1NC(=O)Cc1ccc(Oc2ccccc2)cc1 (centres unmarked) [Example 70]", "pEC50": 6.80}
{"MOLECULE": "CCC(Cc1ccc(OC)c(CC(=O)Nc2ccc(C(F)(F)F)cc2)c1)C(=O)O (centres unmarked) [Example 88]", "pEC50": 7.82}
{"MOLECULE": "CCC(Cc1ccc(OC)c(NC(=O)Cc2ccc(OCc3ccccc3)cc2)c1)C(=O)O (centres unmarked) [Example 46]", "pEC50": 7.30}

// next item, pEC50 requested
Field pEC50 (entry CCCCC/C=C\C/C=C\C=C\[C@@H](O)C/C=C\CCCC(=O)O [(8S) HETE, reference compound] ) reads 5.89

* * *

ASSAY_METRIC: melting point

Some compounds with recorded melting point:
{"COMPOUND": "CCC(Cc1ccc(OC)c(CC(=O)Nc2ccc(C(F)(F)F)cc2)c1)C(=O)O (single isomer, unassigned; (-)) [Example 121 (−)]", "melting point": "121 to 123 °C"}
{"COMPOUND": "COc1ccc(CCC(=O)O)cc1NC(=O)Cc1ccc(-c2ccccc2)cc1", "melting point": "177 °C"}
{"COMPOUND": "CCC(Cc1ccc(OC)c(OCCc2ccc(C(F)(F)F)cc2)c1)C(=O)O (centres unmarked)", "melting point": "64 to 66 °C"}
{"COMPOUND": "COc1ccc(CC(OC)C(=O)O)cc1NC(=O)Cc1ccc(C(F)(F)F)cc1 (centres unmarked)", "melting point": "124 to 125 °C"}

Now turn to the next compound.
// recorded melting point for CCC(Cc1ccc(OC)c(CC(=O)Nc2ccc(C(F)(F)F)cc2)c1)C(=O)O (centres unmarked) [Example 88] : 136 to 137 °C
